Value source: patent US11130741B2

System: Staphylococcus aureus subsp. aureus (ATCC29213)
Experiment: MIC, broth microdilution (CLSI), Staphylococcus aureus subsp. aureus ATCC29213
Assay type: cell-based
Settings: ATCC29213, Table 15, read-out: S. aureus ("wound") (MIC)
PARAMETER_MEASURED: MIC (µg/mL)
Please reply with the bare figure in µg/mL and do not write the unit itself.

1) Cl.NC1CCCC(C(=O)Nc2cc(C(F)(F)F)cc3c2Nc2ccc(N4CCCC4)cc2S3)C1 (stereo not shown)
8
2) Cl.Cl.NCCN1CCC(Nc2cc(C(F)(F)F)cc3c2Nc2ccc(N4CCC(F)(F)C4)cc2S3)CC1
8
3) CC1CCCN1c1ccc2c(c1)Sc1cc(C(F)(F)F)cc(NC3CCN(CCN)CC3)c1N2.Cl.Cl (stereo not shown)
2

Reported MIC ( CC1CCN(c2ccc3c(c2)Sc2cc(C(F)(F)F)cc(NC4CCN(CCN)CC4)c2N3)C1C.Cl (stereo not shown) ) = 1
